Sourced from PubChem BioAssay

test_details: inhibitors of mutant huntingtin aggregation, primary screen, imaging, exon1htt(103Q)mCFP cells, high-content imaging (AID 483);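 note: compound exposure lasted 3 days before fixation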
test_settings: exon1htt(103Q)mCFP cell line, aggregate imaging, at 2 µM; hits give high values
Where a SMILES comes first, the peptide text is derived from it. The star is where a group is joined. Boc = CC(C)(C)OC(=O)*
Reported inhibition of aggregation values for the following compounds.
Numeric only. Scale: %

Illustrative cases are given below, each with its answer.
[
  {
    "compound": "CSCCC(NC(=O)OC(C)(C)C)C(=O)NC(CC(C)C)C(N)=O (stereo not drawn) (Boc-Met-Leu-NH2; configuration not given here)",
    "unit_spec": "%",
    "inhibition of aggregation": -0.6
  },
  {
    "compound": "CC(C(=O)Nc1ccccc1-c1ccccc1)N1CCOCC1 (stereo not given)",
    "unit_spec": "%",
    "inhibition of aggregation": 5.4
  },
  {
    "compound": "COc1ccc(C2C(C(=O)Nc3cccnc3)=C(C)Nc3nc(-c4cccs4)nn32)cc1OC (stereo not given)",
    "unit_spec": "%",
    "inhibition of aggregation": 2.5
  },
  {
    "compound": "CN1CCN(Cc2nc3c(c(=O)[nH]c(=O)n3C)n2CCc2ccccc2)CC1",
    "unit_spec": "%",
    "inhibition of aggregation": 6.7
  },
  {
    "compound": "CCOc1ccccc1C(=O)Nc1cc(=O)n(C)c(=O)n1C",
    "unit_spec": "%",
    "inhibition of aggregation": 6.8
  }
]

### Prompt # get_value(readout='inhibition of aggregation', item= COc1ccc(Cn2c(-c3ccco3)nc3oc4ccccc4c(=O)c3c2=O)cc1 )
### Response -68.5

### Prompt Endpoint output: inhibition of aggregation of CC1(C)NC(=O)N(CC(O)COc2cccc(F)c2)C1=O (stereo not given) . Value?
### Response 8.4

### Prompt Reported inhibition of aggregation, compound CC(=O)NCCOc1cccc(OCCNC(C)=O)c1 : ____
### Response 6.8

### Prompt Give the measured inhibition of aggregation of C=CCn1c(SCC(=O)Nc2ccccc2OC)nnc1-c1ccco1 .
### Response 1.8

### Prompt Looking for the measured inhibition of aggregation of O=C(Cc1ccccc1)Nc1ccc(CN2CCOCC2)cc1 , can you help?
### Response -17.1
